The values you see were collected from paper PMC7531004.

# System: P388 mouse leukemia cells
# Experimental Context: 92 h
Where a SMILES comes first, the peptide text is derived from it. [ ]: non-standard residue; d: D form. The star is where a group is joined. NHCH2CH2OH = OCCN*; For = O=C*
Metric: cell viability/% (%)
Numeric answer only, unit % assumed.

Lookup: Query: cell viability/%; subject: CC(C)C[C@@H](NC(=O)[C@H](C)NC(=O)CNC(=O)[C@@H](NC=O)C(C)C)C(=O)N[C@@H](C)C(=O)N[C@H](CC(C)C)C(=O)N[C@H](C(=O)N[C@@H](C(=O)N[C@@H](Cc1c[nH]c2ccccc12)C(=O)N[C@H](CC(C)C)C(=O)N[C@@H](Cc1c[nH]c2ccccc12)C(=O)N[C@H](CC(C)C)C(=O)N[C@@H](Cc1c[nH]c2ccccc12)C(=O)N[C@@H](C(=O)N[C@@H](Cc1c[nH]c2ccccc12)C(=O)NCCO)C(C)C)[C@H](C)O)C(C)C [compound 11295] (For-VGA[dL]A[dL]V[dT]W[dL]W[dL]W[dV]W-NHCH2CH2OH)
Found: 78.1

Lookup: Query: cell viability/%; subject: CC(C)C[C@@H](NC(=O)[C@H](C)NC(=O)CNC(=O)[C@@H](NC=O)C(C)C)C(=O)N[C@@H](C)C(=O)N[C@@H](C(=O)N[C@H](C(=O)N[C@@H](C(=O)N[C@@H](Cc1c[nH]c2ccccc12)C(=O)N[C@H](CC(C)C)C(=O)N[C@@H](Cc1c[nH]c2ccccc12)C(=O)N[C@H](CC(C)C)C(=O)N[C@@H](Cc1c[nH]c2ccccc12)C(=O)N[C@H](CC(C)C)C(=O)N[C@@H](Cc1c[nH]c2ccccc12)C(=O)NCCO)C(C)C)C(C)C)C(C)C [compound 4495] (For-VGA[dL]A[dV]V[dV]W[dL]W[dL]W[dL]W-NHCH2CH2OH)
Found: 3.5

Lookup: Query: cell viability/%; subject: CNC(=O)C[C@@H](NC(=O)[C@H](Cc1c[nH]c2ccccc12)NC(=O)[C@H](NC(=O)[C@H](Cc1c[nH]c2ccccc12)NC(=O)[C@H](NC(=O)[C@H](Cc1c[nH]c2ccccc12)NC(=O)[C@@H](CC(C)C)NC(=O)[C@@H](NC(=O)[C@H](NC(=O)[C@H](C)NC(=O)[C@@H](CC(C)C)NC(=O)[C@H](C)NC(=O)CNC(=O)[C@@H](NC=O)C(C)C)C(C)C)C(C)C)C(C)C)C(C)C)C(=O)N[C@@H](Cc1c[nH]c2ccccc12)C(=O)NCCO [compound 4808] (For-VGA[dL]A[dV]V[dL]W[dV]W[dV]W[dD](NHMe)W-NHCH2CH2OH)
Found: 100.0

Lookup: Query: cell viability/%; subject: CC(C)C[C@@H](NC(=O)[C@@H](NC(=O)[C@H](NC(=O)[C@H](C)NC(=O)[C@H](NC(=O)[C@H](C)NC(=O)CNC(=O)[C@@H](NC=O)C(C)C)[C@H](C)O)C(C)C)C(C)C)C(=O)N[C@@H](Cc1c[nH]c2ccccc12)C(=O)N[C@@H](C(=O)N[C@@H](Cc1c[nH]c2ccccc12)C(=O)N[C@@H](C(=O)N[C@@H](Cc1c[nH]c2ccccc12)C(=O)N[C@@H](C(=O)N[C@@H](Cc1c[nH]c2ccccc12)C(=O)NCCO)C(C)C)C(C)C)C(C)C [compound 5623] (For-VGA[dT]A[dV]V[dL]W[dV]W[dV]W[dV]W-NHCH2CH2OH)
Found: 80.0
